Please find below Ki measurements for Adenosine receptor A2a (Homo sapiens), combined from several publications.

MOLECULE	Ki
COc1ccc(C(=O)Nc2nc(-c3ccccc3)c(C(=O)c3ccc(OC)cc3)s2)cc1	> 1 µM

Answer with the recorded Ki of CNc1nc(-n2cc(-c3ccc4ccccc4n3)cn2)nc2c1ncn2C1O[C@H](CO)[C@@H](O)[C@H]1O (some centres undefined) only.
> 5 µM

Answer with the recorded Ki of `Nc1nc(NCCc2ccccc2)c2ccccc2n1` only.
> 10 µM

Answer with the recorded Ki of `CCOC(=O)c1cnn(-c2nc(NC3CCCC3)c3ncn([C@@H]4O[C@H](CO)[C@@H](O)[C@H]4O)c3n2)c1` only.
> 5 µM
